METHOD_DESCRIPTION: in vitro
CONDITION_DESCRIPTION: human, microsomes, % remaining at 15 min, without NADPH

{"SMILES_TEXT": "O=C(N/N=C/c1cc(Br)cc(Br)c1O)c1ccc(Br)cc1", "remaining at 0.25 h, 2 μM / %": 96.5}
{"SMILES_TEXT": "Cc1ccccc1C(=O)N/N=C/c1cc(Br)ccc1O", "remaining at 0.25 h, 2 μM / %": 101}

* * *

METHOD_DESCRIPTION: in vitro
CONDITION_DESCRIPTION: human, microsomes, % remaining at 0 min, without NADPH
ATTRIBUTE_MEASURED: remaining at 0 h, 2 μM (%)

{"COMPOUND": "O=C(N/N=C/c1cc(Br)cc(Br)c1O)c1ccc(Br)cc1 [D13]", "ATTRIBUTE_MEASURED": "remaining at 0 h, 2 μM", "READING_UNIT": "%", "VALUE": 100}
{"COMPOUND": "Cc1ccccc1C(=O)N/N=C/c1cc(Br)ccc1O [BHBM]", "ATTRIBUTE_MEASURED": "remaining at 0 h, 2 μM", "READING_UNIT": "%", "VALUE": 100}

* * *

METHOD_DESCRIPTION: in vitro
CONDITION_DESCRIPTION: human, Caco-2, pH 7.4, Recovery BL→AP

{"MOLECULE": "CC(C)NCC(O)COc1cccc2ccccc12 (stereo not shown)", "READING_UNIT": "%", "recovery at 2 h, 5 μM": 95.5}

* * *

METHOD_DESCRIPTION: in vitro
CONDITION_DESCRIPTION: mouse, microsomes
ATTRIBUTE_MEASURED: half-life at 2 μM (min)

{"COMPOUND": "O=C(N/N=C/c1cc(Br)cc(Br)c1O)c1ccc(Br)cc1 [D13]", "ATTRIBUTE_MEASURED": "half-life at 2 μM", "READING_UNIT": "min", "VALUE": 88.6}
{"COMPOUND": "Cc1ccccc1C(=O)N/N=C/c1cc(Br)ccc1O [BHBM]", "ATTRIBUTE_MEASURED": "half-life at 2 μM", "READING_UNIT": "min", "VALUE": 7.33}

* * *

METHOD_DESCRIPTION: in vitro
CONDITION_DESCRIPTION: human, microsomes, % remaining at 60 min, with NADPH

{"SMILES_TEXT": "O=C(N/N=C/c1cc(Br)cc(Br)c1O)c1ccc(Br)cc1", "remaining at 1 h, 2 μM": "~60%"}

* * *

Below is a list of entries, each paired with its recorded remaining at 0.25 h, 2 μM value.
METHOD_DESCRIPTION: in vitro
CONDITION_DESCRIPTION: mouse, microsomes, % remaining at 15 min, without NADPH

{"SMILES_TEXT": "O=C(N/N=C/c1cc(Br)cc(Br)c1O)c1ccc(Br)cc1", "READING_UNIT": "%", "remaining at 0.25 h, 2 μM": 90.7}
{"SMILES_TEXT": "Cc1ccccc1C(=O)N/N=C/c1cc(Br)ccc1O", "READING_UNIT": "%", "remaining at 0.25 h, 2 μM": 109}

* * *

METHOD_DESCRIPTION: in vitro
CONDITION_DESCRIPTION: mouse, microsomes, % remaining at 0 min, without NADPH
Below is a list of entries, each paired with its recorded remaining at 0 h, 2 μM value.

{"SMILES_TEXT": "O=C(N/N=C/c1cc(Br)cc(Br)c1O)c1ccc(Br)cc1", "READING_UNIT": "%", "remaining at 0 h, 2 μM": 100}
{"SMILES_TEXT": "Cc1ccccc1C(=O)N/N=C/c1cc(Br)ccc1O", "READING_UNIT": "%", "remaining at 0 h, 2 μM": 100}
